target: Plasma Kallikrein (Homo sapiens (Human)); experiment: Determination of related protease inhibition: Plasma Kallikrein (fluorogenic substrate at Km); conditions: 25° C., read-out: IC50 (human PKal)
Sequence (P03952 391-638): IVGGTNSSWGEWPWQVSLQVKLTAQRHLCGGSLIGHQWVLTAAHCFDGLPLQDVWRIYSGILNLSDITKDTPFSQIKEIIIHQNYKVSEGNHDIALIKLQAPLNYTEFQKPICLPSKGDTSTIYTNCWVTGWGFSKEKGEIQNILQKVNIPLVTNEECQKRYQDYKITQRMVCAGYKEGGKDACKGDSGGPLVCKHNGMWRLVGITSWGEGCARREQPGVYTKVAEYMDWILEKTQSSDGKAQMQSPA
Sequence (P03952 20-390 partner): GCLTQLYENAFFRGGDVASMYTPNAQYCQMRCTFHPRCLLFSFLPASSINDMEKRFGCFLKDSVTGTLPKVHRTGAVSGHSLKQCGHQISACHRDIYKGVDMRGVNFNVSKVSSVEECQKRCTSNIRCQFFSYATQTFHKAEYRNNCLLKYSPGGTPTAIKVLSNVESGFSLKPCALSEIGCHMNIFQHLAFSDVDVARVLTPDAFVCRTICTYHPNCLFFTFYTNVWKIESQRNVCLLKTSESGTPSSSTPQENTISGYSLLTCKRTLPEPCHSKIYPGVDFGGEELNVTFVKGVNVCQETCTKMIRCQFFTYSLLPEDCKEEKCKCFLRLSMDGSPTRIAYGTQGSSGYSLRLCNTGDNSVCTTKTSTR
Overview of recorded IC50 for various compounds

These solved cases illustrate the format of a correct answer.
Nc1nccc2c(NCc3ccc(N4CCn5c(nnc5C(F)(F)F)C4)cc3)cccc12    > 40 µM
CN1CCC(CCn2cc(CNc3ccc4c(N)nccc4c3)cn2)CC1    3 to 10 µM
CN1CCC(CNc2ccc(CNc3cc(C#N)nc4[nH]ccc34)cn2)CC1    > 40 µM
Cc1cnc2n1CCC(COc1cc(CNc3cccc4c(N)nccc34)ccn1)C2 (stereo not shown) [Example 4320]    3 to 10 µM

Hello, I am looking for reported IC50 with Plasma Kallikrein (Homo sapiens (Human)) for CN1CCC(OCc2ccc(CNc3ccc4c(N)nccc4c3)c(F)c2)CC1 . Could you help? 10 to 40 µM

Hello, I am looking for reported IC50 with Plasma Kallikrein (Homo sapiens (Human)) for CN1CCC(CNc2ccc(CNc3cc(C(=O)O)c4cnccc4c3)cn2)CC1 . Could you help? > 100 µM

Hello, I am looking for reported IC50 with Plasma Kallikrein (Homo sapiens (Human)) for Cn1ccnc1CCOc1cc(CNc2ccc3c(N)nccc3c2)ccn1 . Could you help? 3 to 10 µM
